Source: the supplement of paper PMC5908809

Test system: normal NK cells expanded with K562-aAPC
Assay: percent inhibition of viability; higher = more inhibition
Settings: 72 h; IL-2 2.5 ng/mL; 2.5 nM
Measurement kind: percent inhibition of viability

Molecule	System under test	percent inhibition of viability
O=C(c1cccc(Cl)c1F)N1CCN(Cc2cccc(Nc3nccs3)n2)CC1 [MK-8745] (max concentration tested 2500 nM)	normal NK cells expanded with K562-aAPC	-4.25%
COc1cc(C(=O)NC2CCN(C)CC2)c(F)cc1Nc1ncc2c(n1)N(C1CCCC1)CC(F)(F)C(=O)N2C [TAK-960] (max concentration tested 2500 nM)	normal NK cells expanded with K562-aAPC	0.01%
Nc1nc(NC2CC2)cc(-c2cccc(Cl)c2Cl)n1 [TH588] (max concentration tested 25000 nM)	normal NK cells expanded with K562-aAPC	-9.36%
CCOc1cc2ncc(C#N)c(Nc3ccc(F)c(Cl)c3)c2cc1NC(=O)/C=C/CN(C)C [Pelitinib] (max concentration tested 2500 nM)	normal NK cells expanded with K562-aAPC	1.75%
NC(=O)Nc1sc(-c2ccc(F)cc2)cc1C(N)=O [TPCA-1] (max concentration tested 25000 nM)	normal NK cells expanded with K562-aAPC	-0.68%
CN1CCN(C2CCN(C(=O)Nc3cc(Oc4ccc(NC(=O)C5(C(=O)Nc6ccc(F)cc6)CC5)c(F)c4)ccn3)CC2)CC1 [Golvatinib] (max concentration tested 2500 nM)	normal NK cells expanded with K562-aAPC	-6.95%
CCCNC(=O)Nc1ccc(Oc2ncnc3cc(OC)c(OC)cc23)cc1Cl [KRN-633] (max concentration tested 2500 nM)	normal NK cells expanded with K562-aAPC	-2.98%

Now for a further molecule.
Tell us which percent inhibition of viability value is on record for CCCCCCCCCCCCCCCCCCOP(=O)([O-])OC1CC[N+](C)(C)CC1 [Perifosine] (max concentration tested 2500 nM)
-4.12%
